- Test system: COLO 205 colon
- test protocol: NCI tumour cell line growth inhibition, 48 h; in the data active = GI50 below about 0.43 µM; inactive = the rest
Log the outcome using a class from active, inactive

Answered cases to consult:
{"compound": "CC1CN1CC(O)C(O)CN1CC1C (configuration not stated)", "label value": "inactive"}
{"compound": "COc1cc(NC(=O)c2cc(O)c(CC=C(C)C)c(O)c2)cc2c1O[C@]1(C)CC[C@@H](O)C(C)(C)[C@H]1C2", "label value": "inactive"}
{"compound": "NC(N)=NCCCn1c2c(c3ccccc3c1=O)C(=O)c1ccccc1-2", "label value": "inactive"}
{"compound": "COc1ccc(C(=O)COc2cccc(/C=C3\\COc4ccc5ccccc5c4C3=O)c2)cc1", "label value": "inactive"}

query: For "Cc1ccc(C(=NN=C(N)N)c2ccc(C)cc2)cc1" , which call appears in the assay record?
result: inactive

query: Please share the test call associated with "CCN(CC)c1ccc(C(=N)c2ccc(N(CC)CC)cc2)cc1" .
result: active

query: What is the recorded call for this compound in the test? "N.N.N.N.N.O=C([O-])c1nn[n-]n1.[Cl-].[Co+3]"
result: inactive

query: Which outcome was entered for the compound "CCS(=O)(=O)c1ccc(OC)c(Nc2ncc(-c3cccc(OC)c3)o2)c1" in this test?
result: inactive

query: What did this assay record as the result for "NCCCC[C@@H]1NC(=O)[C@H]2CCCN2C(=O)[C@H](Cc2ccccc2)NC(=O)[C@H](Cc2ccccc2)CNC1=O" ?
result: inactive

query: Fill in: this test's call for "Nc1ncc(-c2cnn(CCO)c2)c2scc(-c3ccc(NC(=O)Nc4cccc(F)c4)cc3)c12" is ___
result: active

query: What is the recorded call for this compound in the test? "COC(=O)Nc1nc2ccc(Oc3ccc(NC(=O)Nc4ccccc4)cc3)cc2[nH]1"
result: active

query: Hey, what did the test say about "NC(=S)N/N=C/c1ccc(OC(=O)COc2ccc(Cl)cc2)cn1" ?
result: inactive

====

- Tested on: IGROV1 ovarian
- test protocol: NCI tumour cell line growth inhibition, 48 h; in the data active = GI50 below about 0.43 µM; inactive = the rest
Parameter call: string, one of active, inactive

Check out these entries, answers already filled in.
{"compound": "CCN1C(=O)CNc2ncc(-c3ccc(-c4ncn[nH]4)nc3C)nc21", "label value": "active"}
{"compound": "COc1cc2c(cc1C)NC(=O)/C2=C/c1cccnc1", "label value": "inactive"}

query: State the result this test recorded for "N.N.N.N.N.O=C([O-])c1nn[n-]n1.[Cl-].[Co+3]" .
result: inactive

query: Write down the call the test reported for this compound. Item: "CCS(=O)(=O)c1ccc(OC)c(Nc2ncc(-c3cccc(C(C)=O)c3)o2)c1"
result: inactive

query: So what was the verdict on CCN(CC)CCCC(C)Nc1c(C)cnc2cc(Cl)c(C)cc12 (stereo not given) in this test?
result: inactive

query: Could you please tell me the result logged for "CCS(=O)(=O)c1ccc(OC)c(Nc2ncc(-c3cccc(OC)c3)o2)c1" in this assay?
result: inactive

query: Name the outcome recorded for "Cc1cc(C)c(C(=O)CC(=O)c2cccnc2)c(C)c1" in the assay.
result: inactive

query: Record request — test call for "O=C(CCl)Nc1ccc(Cl)cc1"
result: inactive

query: How did this test come out for "CCOC(=O)Sc1ncnc2nc[nH]c12" ?
result: inactive

query: Write down the call the test reported for this compound. Item: "CCOC(=O)c1cc(/C(=N\O)c2cc(OC)c(OC)c(OC)c2)n2cc(C)cc(C)c12"
result: inactive

====

- Test system: HCT-116 colon
- test protocol: NCI tumour cell line growth inhibition, 48 h
experimental readout: TGI

{"compound": "Cc1cc(C)nc(NS(=O)(=O)c2ccc(Nc3c4ccccc4nc4c(C(=O)Nc5ccc(S(=O)(=O)Nc6cc(C)on6)cc5)cccc34)cc2)n1", "TGI": "31.2 µM"}
{"compound": "CC(C)=CCC/C(=C/CC/C(C)=C/CCc1ccoc1)C(=O)O", "TGI": "> 100 µM"}
{"compound": "O=C1c2ccccc2C(=O)C2NC(CCCCCSSCCCCCC3=NC4C(=O)c5ccccc5C(=O)C4N3)=NC12 (stereo not drawn)", "TGI": "> 100 µM"}

State the recorded TGI for every item in the following list.
1. COC(=O)C1C2OC(C)(C)OC2CN1S(=O)(=O)c1ccc(C)cc1 (stereo not drawn)
2. Cc1ccc2c(c1)C(=O)C1(C2)Cc2c(C)cccc2C1=O (stereo not drawn)
3. COC(=O)/C(C)=N/NC(=S)SC
4. O=C1NC(=O)c2ccc([N+](=O)[O-])c3cccc1c23
5. COc1ccc2c(c1)C(=O)c1c-2n(CCCn2ccnc2)c(=O)c2ccccc12
6. CC(C)OC(=O)c1ccc(NCC2=CC(=O)C=CC2=O)cc1
7. CC12Nc3c(Cl)cc(Cl)cc3N1C(=O)c1ccccc12 (stereo not drawn)
8. COC(=O)c1ccccc1/C=C1\Cc2c(C)c3c(c(C)c2C1=O)CCC3

result:
["> 100 µM", "> 100 µM", "98.5 µM", "23.9 µM", "0.74 µM", "28.6 µM", "> 100 µM", "> 100 µM"]

Return reported TGI values for all items listed beneath this line.
1. COc1cc(NC(=O)c2cc(O)c(CC=C(C)C)c(O)c2)cc2c1O[C@]1(C)CC[C@@H](O)C(C)(C)[C@H]1C2
2. COc1cc2c(cc1C)NC(=O)/C2=C/c1cccnc1
3. CC(=O)O[C@H]1C(=O)[C@@]2(C)[C@H]([C@H](OC(=O)c3ccccc3)[C@]3(O)C[C@H](OC(=O)[C@H](O)[C@@H](NC(=O)c4ccc(N)cc4)c4ccccc4)C(C)=C1C3(C)C)[C@]1(OC(C)=O)CO[C@@H]1C[C@@H]2O
4. NC(CC(=O)OCc1ccccc1)C(=O)OCc1ccccc1 (stereo not drawn)
5. O=C(/C=C/c1cccc([N+](=O)[O-])c1)N1CCN(CCOC(c2ccccc2)c2ccccc2)CC1
6. CCS(=O)(=O)c1ccc(OC)c(Nc2ncc(-c3cccc(OC)c3)o2)c1
7. O=C(N/N=C/c1cccc(O)c1O)c1ccccc1
8. COc1ccc2c(c1)CCC1C3(CCCC21C)OCCO3 (stereo not drawn)

result:
1. 15.4 µM
2. 31.2 µM
3. > 50 µM
4. > 100 µM
5. 51.8 µM
6. > 25 µM
7. > 100 µM
8. 30.5 µM

Value sought for every listed compound: TGI.
1. CN(C)CCn1c(=O)c2ccc(NCCNCCO)c3c(=O)c4ccccc4n(c1=O)c23
2. CCN(CC)CCN1CC(O)=C(c2nc(-c3ccc(Cl)cc3)cs2)C1=N
3. CCOC(=O)/C=C/CC(C)(C)COC(C)=O
4. O=C1C2=Cc3ccccc3CCN2c2ccccc21
5. C=CCCCCCCCCC(=O)NS(=O)(=O)c1ccccc1
6. NC1=NN(c2ccccc2)C(=O)C1C(=O)CCC(=O)Nc1cccc(C(F)(F)F)c1 (stereo not drawn)
7. CC(C)(C)c1cc(S(=O)(=O)O)c2oc(-c3ccccc3)cc(=O)c2c1

result:
["3.4 µM", "4.16 µM", "> 10 µM", "> 70.4 µM", "> 100 µM", "> 100 µM", "> 100 µM"]

Can you give me TGI for all of these, one by one?
1. COc1cccc(Nc2nc(C)c([N+](=O)[O-])c(Nc3cccc(OC)c3)n2)c1
2. Cc1cccc2nc(-c3ccccc3)cc(=O)n12
3. CC(=O)OCC(OC(C)=O)C1C[C@H]2O[C@@H]3[C@H](C[C@H]2O1)O[C@@]1(C[C@@H]3C)C[C@H](C)[C@@H]2O[C@]3(C[C@@H]2O1)C[C@H]1O[C@H]2[C@H](C)[C@H]4OC(=O)C[C@H]5CC[C@@H]6OC7[C@H]8O[C@]9(CC[C@H]%10CC(=O)[C@H](CC[C@H]%11C[C@@H](C)C(=O)C(C[C@@H]4O[C@H]2C[C@H]1O3)O%11)O%10)CC8O[C@@H]7[C@@H](O9)[C@H]6O5 (stereo partly drawn)
4. CSC1=N/C(=C\c2ccc(C)cc2)C(=O)N1
5. CC1(n2nc(-c3ccccc3)n(-c3ccccc3)c2=O)CSC1
6. CC1=NN(c2cccc(S(=O)(=O)O)c2)C2(C1)C(Cl)C(=O)N2c1nc2ccccc2s1 (stereo not drawn)
7. COc1ccc(CNc2ccn(C3OC(CO)C(O)C3O)c(=O)n2)cc1 (stereo not drawn)

result:
["> 100 µM", "> 100 µM", "> 0.39 µM", "> 100 µM", "> 100 µM", "20.4 µM", "> 100 µM"]

====

- System: HCC-2998 colon
- test protocol: NCI tumour cell line growth inhibition, 48 h
I'd appreciate it if you could supply TGI values for the items below.
Numbers only, in µM.

// known answers, use as guide
{"compound": "Nc1ccc(/C=C/c2ccnc3ccccc23)cc1", "measured result": 57.7}
{"compound": "CN(C)c1ccc(N)cc1", "measured result": 21.2}
{"compound": "Clc1nc(Cl)c2ncn(Cc3cccc(COc4cccc(OCc5cccc(Cn6cnc7c(Cl)nc(Cl)nc76)c5)c4)c3)c2n1", "measured result": 33.2}

// for each compound below, give its TGI
1. Cc1ccc(Nc2nc3c(s2)C(=O)c2ccccc2C3=O)c(C)c1
2. CCC[CH2][Sn]1([CH2]CCC)[O]C(=O)C(C(C)C)N=Cc2ccccc2[O]1 (centres undefined)
3. O=C(/C=C/c1cccc([N+](=O)[O-])c1)N1CCN(CCOC(c2ccccc2)c2ccccc2)CC1

result:
31.8
1.88
55.2
